The origin of these recorded values is ChEMBL document CHEMBL1201862.

- system-name: Aldehyde dehydrogenase 1A1 (Homo sapiens) (UniProt P00352)
- Sequence (P00352 whole entry): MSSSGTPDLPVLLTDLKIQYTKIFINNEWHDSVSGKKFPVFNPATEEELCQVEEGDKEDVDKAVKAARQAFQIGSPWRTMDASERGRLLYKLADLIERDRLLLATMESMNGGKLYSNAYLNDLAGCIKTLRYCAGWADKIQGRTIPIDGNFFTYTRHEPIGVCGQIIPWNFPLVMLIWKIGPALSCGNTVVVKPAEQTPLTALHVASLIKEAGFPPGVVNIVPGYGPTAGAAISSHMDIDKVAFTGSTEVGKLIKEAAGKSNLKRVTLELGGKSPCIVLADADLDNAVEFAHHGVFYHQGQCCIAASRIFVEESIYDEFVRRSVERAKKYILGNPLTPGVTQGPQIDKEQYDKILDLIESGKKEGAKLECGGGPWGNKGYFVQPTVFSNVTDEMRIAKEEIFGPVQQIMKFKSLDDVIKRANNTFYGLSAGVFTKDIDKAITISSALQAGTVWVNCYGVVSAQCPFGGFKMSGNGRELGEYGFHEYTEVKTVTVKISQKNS
- assay-summary: qHTS Assay for Inhibitors of Aldehyde Dehydrogenase 1 (ALDH1A1). [Related pubchem assays: 1030 (qHTS Validation Assay for Inhibitors of aldehyde dehydrogenase 1 (ALDH1A1))]
- Format: functional
Hit rate of the full screen: of about 220,000 compounds, about 16,000 (7.3%) were called active. Another 25% or so got no clear call; they are omitted. No cut-off for these calls is given here. Shown is part of a subset that was picked to be rich in actives.
Classes used: active, inactive

>>> class_label("N#CC1=C(N)Oc2c(oc(CO)cc2=O)C12C(=O)Nc1ccc(Cl)cc12 (stereo not given)")
"inactive"
>>> class_label("C[C@@H]1C[C@H]2[C@@H]3C[C@H](F)C4=CC(=O)C=C[C@]4(C)[C@@]3(F)[C@@H](O)C[C@]2(C)[C@@]1(O)C(=O)CO")
"inactive"
>>> class_label("CC(C(=O)NN=C(c1ccccc1)c1ccccc1)N1CCCC1 (stereo not given)")
"inactive"
>>> class_label("CCc1ccc(Oc2coc3cc(OCC(=O)Nc4cc(C)ccc4C)ccc3c2=O)cc1")
"inactive"
>>> class_label("CC(C)C1SC(N/N=C/c2ccco2)=NC1=O (stereo not given)")
"active"
>>> class_label("O=C(O)c1ccc2c(c1)CC(c1ccccc1)OC2=O (stereo not given)")
"inactive"
>>> class_label("O=C(c1no[n+]([O-])c1C(=O)c1csc2ccccc12)c1csc2ccccc12")
"active"
>>> class_label("CC(=O)OCc1ccccc1")
"active"
>>> class_label("CCOC(=O)N1CCN(c2nc3ccccc3nc2C(C#N)C(=O)NCCc2ccccc2)CC1 (stereo not given)")
"active"
>>> class_label("O=C(Cn1c2ccccc2c(=O)c2cc([N+](=O)[O-])ccc21)Nc1ccccc1Cl")
"inactive"
